Hey, just so you know, these numbers are from patent US20120225909A1.

- Tested on: pentobarbital-anesthetized rats
- assay-comment: Test Case 9: effects on the blood pressure and heart rate in pentobarbital-anesthetized rats
- Type: in vivo, rat
- stated-conditions: anesthetized male SD rats; 3 mg/kg intravenous over 30 seconds; maximum change, mean±standard deviation
attribute-measured: increase in MBP (%)

INSERT INTO results (compound, observed) VALUES
  ('Cc1n[nH]c2cc(OCCNC[C@H](O)c3cccc(NS(=O)(=O)C4CCC4)c3)ccc12 [ex3]', 2.0),
  ('Cc1n[nH]c2cc(OCCNC[C@H](O)c3cccc(NS(=O)(=O)c4cn[nH]c4)c3)ccc12 [ex82]', 5.7),
  ('COc1n[nH]c2cc(OCCNC[C@H](O)c3cccc(NS(=O)(=O)c4ccccc4F)c3)ccc12 [ex5]', 5.1);

====

- experimental-target: human β1-adrenergic receptor (Homo sapiens)
- Construct: expressed in transfected cells; host or cells: CHO (Chinese hamster ovary) cells, pcDNA3
- Sequence (P08588 whole entry): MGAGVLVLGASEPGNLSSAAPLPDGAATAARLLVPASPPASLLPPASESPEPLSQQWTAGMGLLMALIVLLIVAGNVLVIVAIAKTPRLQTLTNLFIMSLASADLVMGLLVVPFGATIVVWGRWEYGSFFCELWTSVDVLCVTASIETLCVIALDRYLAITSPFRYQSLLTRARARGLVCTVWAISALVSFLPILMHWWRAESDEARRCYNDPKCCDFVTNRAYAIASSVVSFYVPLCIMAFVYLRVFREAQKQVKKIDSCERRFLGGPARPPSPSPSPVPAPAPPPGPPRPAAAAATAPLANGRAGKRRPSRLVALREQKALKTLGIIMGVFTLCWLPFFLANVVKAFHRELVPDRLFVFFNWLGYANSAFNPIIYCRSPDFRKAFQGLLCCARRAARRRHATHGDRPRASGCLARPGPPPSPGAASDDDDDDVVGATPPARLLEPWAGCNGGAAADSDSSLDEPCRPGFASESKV
- assay-comment: Test Case 2-B: human β1-adrenergic receptor agonist activity
- Format: cell-based
- stated-conditions: read-out: β1 receptor I.A.
Rule: Emax of 6% or more gives true; anything lower gives false.

INSERT INTO assay_data (molecule, experimental_target, qualitative_label) VALUES
  ('CCc1n[nH]c2cc(OCCNC[C@H](O)c3cccc(NS(=O)(=O)c4cccc(C)c4)c3)ccc12 [ex126]', 'human β1-adrenergic receptor (Homo sapiens)', 'true'),
  ('COc1n[nH]c2cc(OCCNC[C@H](O)c3cccc(NS(=O)(=O)c4cccnc4)c3)ccc12 [ex12]', 'human β1-adrenergic receptor (Homo sapiens)', 'false'),
  ('Cc1n[nH]c2cc(OCCNC[C@H](O)c3cccc(NS(=O)(=O)c4cnn(C)c4)c3)ccc12 [ex79]', 'human β1-adrenergic receptor (Homo sapiens)', 'true'),
  ('O=S(=O)(Nc1cccc([C@@H](O)CNCCOc2ccc3c(Cl)n[nH]c3c2)c1)C1CC1 [ex152]', 'human β1-adrenergic receptor (Homo sapiens)', 'false'),
  ('COc1n[nH]c2cc(OCCNC[C@H](O)c3cccc(NS(=O)(=O)c4ccccc4F)c3)ccc12 [ex5]', 'human β1-adrenergic receptor (Homo sapiens)', 'false');

====

- experimental-target: human β2-adrenergic receptor (Homo sapiens)
- Construct: expressed in transfected cells; host or cells: CHO (Chinese hamster ovary) cells, pcDNA3
- Sequence (P07550 whole entry): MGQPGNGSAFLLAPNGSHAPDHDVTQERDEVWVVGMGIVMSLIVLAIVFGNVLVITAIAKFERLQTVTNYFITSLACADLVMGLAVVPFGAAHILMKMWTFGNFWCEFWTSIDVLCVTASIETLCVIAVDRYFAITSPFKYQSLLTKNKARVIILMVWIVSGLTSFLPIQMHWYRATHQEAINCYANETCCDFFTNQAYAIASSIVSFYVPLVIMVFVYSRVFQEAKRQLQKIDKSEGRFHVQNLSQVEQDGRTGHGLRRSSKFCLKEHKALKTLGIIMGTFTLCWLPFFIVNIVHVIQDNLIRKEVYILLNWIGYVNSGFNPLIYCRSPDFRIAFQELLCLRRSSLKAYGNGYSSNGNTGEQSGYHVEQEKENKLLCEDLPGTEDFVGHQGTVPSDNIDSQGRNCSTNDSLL
- assay-comment: Test Case 3-C: human β2-adrenergic receptor agonist activity (Cerep cellular functional GPCR, beta 2)
- Type: cell-based
- stated-conditions: concentration 10 μM, isoproterenol = 100%
Recorded measurements of β2 receptor % of Control Agonist Response, one per entry
attribute-measured: β2 receptor % of Control Agonist Response (%)

INSERT INTO results (structure_notation, endpoint_unit, observed) VALUES
  ('O=S(=O)(Nc1cccc([C@@H](O)CNCCOc2ccc3c(Cl)n[nH]c3c2)c1)c1ccsc1', '%', 3.2),
  ('Cc1n[nH]c2cc(OCCNC[C@H](O)c3cccc(NS(=O)(=O)c4ccc(F)c(N)c4)c3)ccc12', '%', 1.8),
  ('O=S(=O)(Nc1cccc([C@@H](O)CNCCOc2ccc3c(C(F)(F)F)n[nH]c3c2)c1)c1cccnc1', '%', 1.9),
  ('Nc1ccc(F)c(S(=O)(=O)Nc2cccc([C@@H](O)CNCCOc3ccc4c(OC(F)F)n[nH]c4c3)c2)c1', '%', 2.1),
  ('O=S(=O)(Nc1cccc([C@@H](O)CNCCOc2ccc3c(Cl)n[nH]c3c2)c1)c1ccccc1F', '%', 1.6),
  ('O=S(=O)(Nc1cccc([C@@H](O)CNCCOc2ccc3c(OC(F)F)n[nH]c3c2)c1)c1cn[nH]c1', '%', 0.2),
  ('O=S(=O)(Nc1cccc([C@@H](O)CNCCOc2ccc3c(Cl)n[nH]c3c2)c1)c1cn[nH]c1', '%', 0.3),
  ('CCc1n[nH]c2cc(OCCNC[C@H](O)c3cccc(NS(=O)(=O)c4cc(N)ccc4F)c3)ccc12', '%', 0.8),
  ('Cc1n[nH]c2cc(OCCNC[C@H](O)c3cccc(NS(=O)(=O)c4c(F)cccc4F)c3)ccc12', '%', 1.5),
  ('Cc1n[nH]c2cc(OCCNC[C@H](O)c3cccc(NS(=O)(=O)c4cccnc4F)c3)ccc12', '%', '−0.7'),
  ('O=S(=O)(Nc1cc([C@@H](O)CNCCOc2ccc3c(C(F)(F)F)n[nH]c3c2)ccc1Cl)C1CC1', '%', 8.8),
  ('CCc1n[nH]c2cc(OCCNC[C@H](O)c3cccc(NS(=O)(=O)c4cn[nH]c4)c3)ccc12', '%', 0.2),
  ('CCc1n[nH]c2cc(OCCNC[C@H](O)c3cccc(NS(=O)(=O)c4cnn(C)c4)c3)ccc12', '%', 1.3),
  ('O=S(=O)(Nc1cccc([C@@H](O)CNCCOc2ccc3c(OC(F)F)n[nH]c3c2)c1)c1ccccc1F', '%', '−0.6'),
  ('Nc1ccc(F)c(S(=O)(=O)Nc2cccc([C@@H](O)CNCCOc3ccc4c(C(F)(F)F)n[nH]c4c3)c2)c1', '%', 0.3),
  ('COc1n[nH]c2cc(OCCNC[C@H](O)c3cccc(NS(=O)(=O)c4cccnc4F)c3)ccc12', '%', 1.2),
  ('Nc1cccc(S(=O)(=O)Nc2cccc([C@@H](O)CNCCOc3ccc4c(C5CC5)n[nH]c4c3)c2)c1F', '%', 0.5),
  ('COc1n[nH]c2cc(OCCNC[C@H](O)c3cccc(NS(=O)(=O)c4cn[nH]c4)c3)ccc12', '%', 0.5);

====

- experimental-target: human α1A-adrenergic receptor (Homo sapiens)
- assay-comment: Test Case 4-A: human α1A-adrenergic receptor agonist activity (HEK293, Ca flux, Fura-2)
- Assay type: cell-based
- Design: expressed in transfected cells; host or cells: HEK293 cells, pcDNA3.1
- stated-conditions: HEK293; read-out: α1A receptor I.A.
Let's look at some compounds and their measured Emax.
attribute-measured: Emax

INSERT INTO assay_data (compound, experimental_target, observed) VALUES
  ('CC(C)c1n[nH]c2cc(OCCNC[C@H](O)c3cccc(NS(=O)(=O)c4cccc(N)c4)c3)ccc12 [ex231]', 'human α1A-adrenergic receptor (Homo sapiens)', '0%'),
  ('O=S(=O)(Nc1cccc([C@@H](O)CNCCOc2ccc3c(Cl)n[nH]c3c2)c1)c1ccccc1F [ex158]', 'human α1A-adrenergic receptor (Homo sapiens)', '0%'),
  ('O=S(=O)(Nc1cccc([C@@H](O)CNCCOc2ccc3c(Cl)n[nH]c3c2)c1)C1CC1 [ex152]', 'human α1A-adrenergic receptor (Homo sapiens)', '8%'),
  ('CCc1n[nH]c2cc(OCCNC[C@H](O)c3cccc(NS(=O)(=O)c4ccsc4)c3)ccc12 [ex123]', 'human α1A-adrenergic receptor (Homo sapiens)', '0%'),
  ('Nc1cccc(S(=O)(=O)Nc2cccc([C@@H](O)CNCCOc3ccc4c(Cl)n[nH]c4c3)c2)c1 [ex153]', 'human α1A-adrenergic receptor (Homo sapiens)', '0%'),
  ('Cc1n[nH]c2cc(OCCNC[C@H](O)c3cccc(NS(=O)(=O)c4ccc(N)cc4)c3)ccc12 [ex54]', 'human α1A-adrenergic receptor (Homo sapiens)', '0%');

====

# reported α1 receptor % of Control Agonist Response, Control; Norepinephrine; entries follow
- experimental-target: human α1A-adrenergic receptor (Homo sapiens, UniProt P35348)
- Sequence (P35348 whole entry): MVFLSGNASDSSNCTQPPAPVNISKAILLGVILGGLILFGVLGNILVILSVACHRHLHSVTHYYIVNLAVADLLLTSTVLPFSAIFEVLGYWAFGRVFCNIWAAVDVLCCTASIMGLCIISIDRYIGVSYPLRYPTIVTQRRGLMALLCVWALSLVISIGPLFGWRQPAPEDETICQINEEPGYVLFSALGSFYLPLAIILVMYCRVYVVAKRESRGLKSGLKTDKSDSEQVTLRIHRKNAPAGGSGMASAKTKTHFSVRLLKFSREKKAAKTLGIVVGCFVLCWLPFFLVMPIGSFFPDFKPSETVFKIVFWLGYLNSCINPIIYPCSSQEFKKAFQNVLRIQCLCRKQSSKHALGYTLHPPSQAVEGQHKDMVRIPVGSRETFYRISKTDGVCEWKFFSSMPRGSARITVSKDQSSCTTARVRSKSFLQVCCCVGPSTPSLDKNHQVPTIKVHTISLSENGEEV
- assay-comment: Test Case 4-B: human α1A-adrenergic receptor agonist activity (Cerep cellular functional GPCR, alpha 1A)
- Type: cell-based
- Parameters: expressed in transfected cells
- stated-conditions: concentration 10 μM, norepinephrine = 100%
attribute-measured: α1 receptor % of Control Agonist Response, Control; Norepinephrine (%)

INSERT INTO measurements (structure_notation, observed) VALUES
  ('O=S(=O)(Nc1cccc([C@@H](O)CNCCOc2ccc3c(Cl)n[nH]c3c2)c1)c1cn[nH]c1', 22),
  ('Cc1n[nH]c2cc(OCCNC[C@H](O)c3cccc(NS(=O)(=O)c4cc(F)ccc4F)c3)ccc12', 5.9),
  ('COc1n[nH]c2cc(OCCNC[C@H](O)c3cccc(NS(=O)(=O)c4cn[nH]c4)c3)ccc12', 27),
  ('Cc1n[nH]c2cc(OCCNC[C@H](O)c3cccc(NS(=O)(=O)c4c(F)cccc4F)c3)ccc12', 3.7),
  ('Cc1n[nH]c2cc(OCCNC[C@H](O)c3cccc(NS(=O)(=O)c4ccc(Cl)c(N)c4)c3)ccc12', 21),
  ('CCc1n[nH]c2cc(OCCNC[C@H](O)c3cccc(NS(=O)(=O)c4cc(N)ccc4F)c3)ccc12', '−0.2'),
  ('O=S(=O)(Nc1cc([C@@H](O)CNCCOc2ccc3c(C(F)(F)F)n[nH]c3c2)ccc1Cl)C1CC1', 15),
  ('Nc1ccc(F)c(S(=O)(=O)Nc2cccc([C@@H](O)CNCCOc3ccc4c(C(F)(F)F)n[nH]c4c3)c2)c1', 6);
